System: OVCAR-5 ovarian
TEST SUMMARY: NCI-60 one-dose screen, 48 h
DETAILS: 10 µM unless noted
Compounds without any hit were thinned out: in the full panel of roughly 83,000, 20% have a hit. The source made the active and inactive calls. How the source made its calls: active means growth percent below 10; inactive means the rest.
Select the correct class. Options are label 1 = active, label 0 = inactive and nothing else.

Worked examples follow.
{"COMPOUND": "c1ccc(Nc2ccccn2)cc1", "TGT": "OVCAR-5 ovarian", "LABEL CLASS": "label 0"}
{"COMPOUND": "OCCN1CCCN(CCCN2c3ccccc3Sc3ccc(C(F)(F)F)cc32)CC1", "TGT": "OVCAR-5 ovarian", "LABEL CLASS": "label 0"}
{"COMPOUND": "CC(=O)c1ccc2c(c1)c1ccccc1n2C", "TGT": "OVCAR-5 ovarian", "LABEL CLASS": "label 0"}
{"COMPOUND": "COc1ccc2nc3cc(Cl)ccc3c(NCCCNC(C)=O)c2c1", "TGT": "OVCAR-5 ovarian", "LABEL CLASS": "label 0"}
{"COMPOUND": "O=C(N/N=C/c1coc2ccccc2c1=O)c1cc2oc(-c3ccccc3)cc2[nH]1", "TGT": "OVCAR-5 ovarian", "LABEL CLASS": "label 0"}

Name the outcome recorded for "CC1C(=O)CCCC1=O" in the assay.
label 0

Name the outcome recorded for "CC(C)OC(=O)Nn1cnc2ccccc21" in the assay.
label 0

---

Tested on: UACC-62 melanoma
TEST SUMMARY: NCI-60 one-dose screen, 48 h (100 = growth as untreated, 0 = no growth, -100 = all killed)
DETAILS: 10 µM unless noted
About 83,000 compounds went through this panel and 20% of them were active in at least one assay; those are over-represented in the sample as a whole.
ASSAY READOUT: growth (%)
Expressed in %, but write only the number.

{"MOLECULE": "CC/C(=N\\Nc1nc2ccccc2n1C)c1ccccn1", "growth, %": -13.9}

Please give the documented growth of "Oc1ccccc1/C=N/N=C/c1c(O)ccc2ccccc12"
84.4

Please give the documented growth of "Cc1ccc(S(=O)(=O)Nc2cccc(Cn3c(=O)[nH]c4ccc(Oc5ncccn5)cc4c3=O)c2)cc1"
34.7

Please give the documented growth of Cc1ccc(S(=O)(=O)NC(CCC(=O)Nc2ccccc2)C(=O)Nc2ccccc2)cc1 (stereo not given)
-45.6

Please give the documented growth of "CC[C@@H](C)/C=C(C)/C=C/C(=O)c1c(O)c(-c2ccc(OC(=O)[C@@]34CC[C@@](C)(C(=O)O3)C4(C)C)cc2)cn(O)c1=O"
5.24

Please give the documented growth of "[2H]c1nc(=Nc2cc(NC(=O)C=C)c(N(C)CCN(C)C)cc2OC)[nH]c(-c2cn(C([2H])([2H])[2H])c3ccccc23)c1[2H]"
-10.7

Please give the documented growth of "O=C(/C=C/c1cccc(O)c1)c1cccc(-n2cc(-c3ccc(Cl)cc3)[nH]c2=O)c1"
5.09

Please give the documented growth of "c1cc(C2CCCCC2)ccc1OCCCCCCN1CCNCC1"
70.3

Please give the documented growth of "CC(=O)Oc1cc2ccccc2cc1C(C)C"
116

Please give the documented growth of "C/C(=N\Nc1ccc(Cl)cn1)c1ccccn1"
-28.3

---

Test system: MDA-MB-435 melanoma
TEST SUMMARY: NCI-60 one-dose screen, 48 h
DETAILS: 10 µM unless noted
About 83,000 compounds went through this panel and 20% of them were active in at least one assay; those are over-represented in the sample as a whole. Calls of active or inactive are those of the source. Rule for the calls: active = growth percent below 10; inactive = the rest.
Select the correct class. Options are class 1 = active, class 0 = inactive and nothing else.

{"COMPOUND": "CCCCCCCCCCC(C[N+](C)(C)C/C=C/c1ccccc1)C(O)c1ccccc1 (stereo not given)", "TGT": "MDA-MB-435 melanoma", "LABEL CLASS": "class 1"}
{"COMPOUND": "O=C1C(Cl)=C(SC2=NCCN2)C(=O)c2ccccc21", "TGT": "MDA-MB-435 melanoma", "LABEL CLASS": "class 0"}
{"COMPOUND": "COc1ccc(-c2nnc(SCC(=O)Nc3ccc(C(=O)/C=C/c4cc(OC)c(OC)c(OC)c4)cc3)n2-c2ccccc2)cc1OC", "TGT": "MDA-MB-435 melanoma", "LABEL CLASS": "class 1"}

Next, consider the following compound.
Name the outcome recorded for "O=C(Cc1ccccc1[N+](=O)[O-])c1ccc2c(c1)OCO2" in the assay.
class 0

---

Test system: MALME-3M melanoma
TEST SUMMARY: NCI-60 one-dose screen, 48 h
DETAILS: 10 µM unless noted
The panel holds about 83,000 compounds, 20% with a hit somewhere; the sample as a whole holds those more often. Activity calls are given as the source filed them. How the source made its calls: active means growth percent below 10; inactive means the rest.
Select the correct class. Options are yes (1) (active), no (0) (inactive) and nothing else.

Worked examples follow.
{"COMPOUND": "COC(=O)C1CC(=O)N(C(=O)Nc2ccc(Cl)cc2Cl)C1 (stereo not given)", "LABEL CLASS": "no (0)"}
{"COMPOUND": "O=Nc1c(-c2c(O)[nH]c3cc(Br)ccc23)[nH]c2ccccc12", "LABEL CLASS": "no (0)"}
{"COMPOUND": "COc1ccccc1CNCCCN1C(=O)c2ccc3c4c(ccc(c24)C1=O)C(=O)N(CCCNCc1ccccc1OC)C3=O", "LABEL CLASS": "yes (1)"}
{"COMPOUND": "CC(C)CSc1nc(-c2ccc(F)cc2)c(C#N)c(N2CCCCC2)n1", "LABEL CLASS": "no (0)"}
{"COMPOUND": "O=C1Nc2ccccc2/C1=C/c1cn(CC(O)Cn2cc(/C=C3\\C(=O)Nc4ccccc43)c3ccccc32)c2ccccc12 (stereo not given)", "LABEL CLASS": "yes (1)"}

Name the outcome recorded for "CCC(C)(C)c1ccc(OCCCCCCN2CCNCC2)cc1" in the assay.
no (0)

Name the outcome recorded for "CC(=O)NCCN" in the assay.
no (0)

Name the outcome recorded for "CN(CCC#N)c1ccc(/C=C(\C#N)c2cccc(C(F)(F)F)c2)cc1" in the assay.
no (0)

Name the outcome recorded for "CN1CCN(Cc2ccc(NC(=O)c3cncc(C#Cc4c(N)ncc5ccc(F)cc45)c3)cc2C(F)(F)F)CC1" in the assay.
yes (1)

Name the outcome recorded for CC([C@H]1CCC2C3CCC4C[C@@H](N)CC[C@]4(C)C3CC[C@@]21C)N(C)C (stereo not given in full) in the assay.
yes (1)

Name the outcome recorded for "COc1cc2c(cc1OC)C(Cc1cc(OC)c(OC)cc1[N+](=O)[O-])=NCC2" in the assay.
no (0)

Name the outcome recorded for "CC(=O)O.[In]" in the assay.
no (0)

---

Tested on: IGROV1 ovarian
TEST SUMMARY: NCI-60 one-dose screen, 48 h
DETAILS: 10 µM unless noted
Compounds without any hit were thinned out: in the full panel of roughly 83,000, 20% have a hit. Active and inactive are the calls of the source. How the source made its calls: active means growth percent below 10; inactive means the rest.
Select the correct class. Options are 1.0 = active, 0.0 = inactive and nothing else.

{"COMPOUND": "NNC(=O)CNc1ccc2ccccc2c1", "TGT": "IGROV1 ovarian", "LABEL CLASS": 1.0}
{"COMPOUND": "C=CCC(CCC(CC=C)C(=O)OCC)C(=O)OCC (centres undefined)", "TGT": "IGROV1 ovarian", "LABEL CLASS": 0.0}
{"COMPOUND": "CC1C(=O)CCCC1=O", "TGT": "IGROV1 ovarian", "LABEL CLASS": 0.0}
{"COMPOUND": "CCC(CCCN1C(=O)c2ccccc2C1=O)Nc1cc(OC)cc2c(C)ccnc12 (centres undefined)", "TGT": "IGROV1 ovarian", "LABEL CLASS": 0.0}
{"COMPOUND": "COc1cc(/C=C/C(=O)/C=C(/C=C/c2ccc(OC(C)=O)c(OC)c2)OB(F)F)ccc1OC(C)=O", "TGT": "IGROV1 ovarian", "LABEL CLASS": 0.0}
{"COMPOUND": "CCCCCSc1ccc2nc(NC(=O)OCCC)sc2c1", "TGT": "IGROV1 ovarian", "LABEL CLASS": 0.0}
{"COMPOUND": "CCCCCCCCCCCCCCCCCC(=O)Nc1ccc(O)cc1", "TGT": "IGROV1 ovarian", "LABEL CLASS": 0.0}
{"COMPOUND": "CCCCCCCCCCCCCCCCNC(=S)N/N=C/c1ccc(O)cc1O", "TGT": "IGROV1 ovarian", "LABEL CLASS": 0.0}

Name the outcome recorded for COc1cc(NC(C)CCCN)c2nc(C)ccc2c1OC (centres undefined) in the assay.
0.0

Name the outcome recorded for "O=C(CBr)OCc1ccc([N+](=O)[O-])o1" in the assay.
0.0

Name the outcome recorded for CCOC(=O)C(C)C(C)(O)c1ccccc1 (centres undefined) in the assay.
0.0

Name the outcome recorded for "O=C(O)COc1ccc([N+](=O)[O-])cc1Cl" in the assay.
0.0

Name the outcome recorded for "O=Nc1c(-c2c(O)[nH]c3cc(Br)ccc23)[nH]c2ccccc12" in the assay.
1.0

Name the outcome recorded for "COC(=O)c1cc(O)c2cc3c(cc2c1-c1cc(OC)c(OC)c(OC)c1)OCO3" in the assay.
0.0

Name the outcome recorded for "COc1cc(N)c2nccc(C)c2c1OC" in the assay.
0.0

Name the outcome recorded for N#CC1=C(N2CCOCC2)NC2c3ccccc3Sc3ccccc3N2C1=N (centres undefined) in the assay.
0.0

Name the outcome recorded for "CCN(CC)c1ccc2nc3ccc(N=Nc4ccc(O)cc4)cc3[n+](-c3ccccc3)c2c1" in the assay.
1.0

Name the outcome recorded for "CCOC(=O)/C(C#N)=C(/CC)OCC" in the assay.
0.0

Each recorded value in this set is attributed to PubChem BioAssay (NCI).
